Molecular target: kinase domain of IRE1 alpha (His-tagged kinase dead construct KR, AA G547-L977, D688N) (Homo sapiens (Human), UniProt O75460, D688N)
Sequence (O75460 547-977 D688N): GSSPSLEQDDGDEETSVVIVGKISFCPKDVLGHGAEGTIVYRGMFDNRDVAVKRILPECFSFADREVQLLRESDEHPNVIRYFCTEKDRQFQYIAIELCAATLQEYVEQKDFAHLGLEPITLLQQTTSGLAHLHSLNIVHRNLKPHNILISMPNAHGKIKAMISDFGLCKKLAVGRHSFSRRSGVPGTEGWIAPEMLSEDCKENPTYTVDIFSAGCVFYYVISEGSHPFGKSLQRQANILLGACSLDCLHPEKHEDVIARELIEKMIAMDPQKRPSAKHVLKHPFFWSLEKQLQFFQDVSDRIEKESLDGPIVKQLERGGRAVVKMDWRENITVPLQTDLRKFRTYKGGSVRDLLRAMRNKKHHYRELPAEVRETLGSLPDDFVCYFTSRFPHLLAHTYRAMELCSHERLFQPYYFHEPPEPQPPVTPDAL
Test: IRE1α TR-FRET competition binding assay
Settings: competition with Kinase Tracer 236, 0.1 μM; one hour at room temperature
Structures can show the parent of a compound that is named as a salt.
I'd appreciate it if you could supply pIC50 values for the items below.
Lab note — pIC50 values are minus log10 of concentrations in M.

Given the molecule `COc1ccc(S(=O)(=O)Nc2ccc(Oc3ncccc3-c3ccnc(N[C@H]4CCCNC4)n3)c(F)c2F)cc1` , what is its reported pIC50? 7.48

Given the molecule Cc1c(NS(=O)(=O)c2ccccc2Cl)cccc1Oc1ncccc1-c1ccnc(N[C@H]2CCCNC2)n1 [Compound 139, hydrochloride] , what is its reported pIC50? 7.34

Given the molecule CN=S(=O)(Cc1ccccc1)Nc1ccc(Oc2ncccc2-c2ccnc(N[C@H]3CCCNC3)n2)c(F)c1F (stereo partly shown) [Compound 274] , what is its reported pIC50? 6.40

Given the molecule `Cc1ccc(CS(=O)(=O)Nc2cc(C)c(Oc3ncccc3-c3ccnc(N[C@@H]4CNC[C@@](C)(F)C4)n3)c(F)c2F)cc1` , what is its reported pIC50? 9.55

Given the molecule O=S(=O)(Cc1ccccc1)Nc1cccc(Oc2ncccc2-c2ccnc(N[C@H]3CCCNC3)n2)c1F [Compound 142, hydrochloride] , what is its reported pIC50? 7.80

Given the molecule `Cc1c(Oc2ncccc2-c2ccnc(N[C@@H]3CNC[C@@H](F)C3)n2)cc(F)c(NS(=O)(=O)Cc2c(F)cccc2F)c1F` , what is its reported pIC50? 9.39

Given the molecule `O=C(NCc1cccc(Oc2ncccc2-c2ccnc(N[C@H]3CCCNC3)n2)c1F)C1CC1` , what is its reported pIC50? 6.31

Given the molecule `O=S(=O)(Cc1ccc(Cl)cc1)Nc1c(F)cc(Oc2ncccc2-c2ccnc(N[C@@H]3CNC[C@@H](F)C3)n2)c(F)c1F` , what is its reported pIC50? 9.70

Given the molecule O=S(=O)(Nc1cccc(Oc2ncccc2-c2ccnc(N[C@H]3CCCNC3)n2)c1)c1ccccc1Cl [Compound 132, hydrochloride] , what is its reported pIC50? 7.49

Given the molecule `CNCCNc1nccc(-c2cccnc2Oc2ccc(NS(=O)(=O)Cc3ccccc3)c(F)c2F)n1` , what is its reported pIC50? 7.38

Given the molecule `C[C@@]1(F)CNC[C@@H](Nc2nccc(-c3cccnc3Oc3cc(F)c(NS(=O)(=O)Cc4ccccc4F)c(F)c3F)n2)C1` , what is its reported pIC50? 9.64

Given the molecule `O=S(=O)(Cc1cccc(Cl)c1)Nc1ccc(Oc2ncccc2-c2ccnc(N[C@H]3CCCNC3)n2)c(F)c1F` , what is its reported pIC50? 8.21

Given the molecule N#Cc1ccc(CS(=O)(=O)Nc2ccc(Oc3ncccc3-c3ccnc(N[C@H]4CCCNC4)n3)c(F)c2F)cc1 [Compound 250] , what is its reported pIC50? 8.31
